Target: human CD3E&G complex (Sino Biological Inc., CT041-H0305H) (human) (UniProt P07766)
Sequence (P07766 23-126, chain 1 of 2): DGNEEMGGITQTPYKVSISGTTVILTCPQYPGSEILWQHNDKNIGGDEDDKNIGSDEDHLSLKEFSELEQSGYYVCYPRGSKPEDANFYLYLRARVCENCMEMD
Sequence (P09693 23-116, chain 2 of 2, further chain): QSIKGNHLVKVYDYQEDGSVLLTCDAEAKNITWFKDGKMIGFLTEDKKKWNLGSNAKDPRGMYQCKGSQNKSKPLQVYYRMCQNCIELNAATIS
Assay: SPR, antigen on chip
readout-name: Kd (nM)

INSERT INTO measurements (binder, readout_name, measured) VALUES
  ('SGN70-sp34.24LH (bispecific antibody, part only; not given: anti-CD70 Fab arm and Fc, not shown: another chain or arm of the molecule; a dimerising Fc or GST; large carriers; small tags and cut ends) scFv: QAVVTQEPSLTVSPGGTVTLTCRSSTGAVTTSNYANWVQQKPGQAPRGLIGGTNKRAPGVPARFSGSLLGDKAALTLLGAQPEDEAEYYCALWYSNLWVFGQGTKLTVLGGGGSGGGGSGGGGSGGGGSEVQLVESGGGLVQPGGSLKLSCAASGFTFNTYAMNWVRQASGKGLEWVGRIRSKYNNYATYYADSVKDRFTISRDDSKSTLYLQMNSLKTEDTAVYYCARHGNFGQSYVSWFAYWGQGTTVTVSS', 'Kd', 98);
